- test-details: H69AR cell proliferation blockers – human, duplicate replicates, primary screen (AID 580)
- study-conditions: H69AR lung tumor cells viability, ATP luminescence, 72 h; at 10 µM; stronger effect = lower value
We label by threshold. Values of viability strictly beneath 90% are Fulfilled. Values of 90% and up are Not fulfilled.

Query: Does CCCOC(=O)C1C2C=CC3(CN(c4cccc(Cl)c4)C(=O)C13)O2 (stereo unspecified) have viability strictly under 90%?
Reply: Fulfilled

Query: Bench note: check whether `Cc1ccccc1-n1c(Cn2c(=O)sc3ccccc32)nnc1SCC(N)=O` shows viability below 90%
Reply: Fulfilled

Query: Consider the compound CCC(C)NC(=O)c1cn(CC)c2ccc(S(=O)(=O)N(C)C)cc2c1=O (stereo unspecified) . Is its viability strictly less than 90%?
Reply: Fulfilled

Query: Is viability of `C=C(C)Cn1c(-c2ccccc2)nc2ccccc21` strictly below 90%?
Reply: Not fulfilled

Query: Determine if `COc1cccc2cc(C(=O)Nc3cccnc3N3CCOCC3)c(=O)oc12` shows viability strictly lower than 90%.
Reply: Not fulfilled

Query: Lab log: compare recorded viability with 90%; is it strictly lower for `N#Cc1c2n(c(=O)[nH]c1=O)CCCCC2` ?
Reply: Not fulfilled

Query: Lab log: compare recorded viability with 90%; is it strictly lower for Cc1ccc(C)c(N2CCN(CCCNC(=O)Cn3cc4c(n3)CCC(C)C4)CC2)c1 (stereo unspecified) ?
Reply: Fulfilled

Query: Decide: viability of `CC(C)(C)SCCNC(=O)COc1ccccc1` strictly below 90%?
Reply: Not fulfilled

Query: Strictly below 90%: is that where viability of `Clc1ccc(SCCCCn2ccnc2)cc1` sits?
Reply: Not fulfilled

From: PubChem BioAssay
